- Subject of test: mushroom tyrosinase
- Experiment description: Mushroom tyrosinase inhibition, diphenolase assay
- Assay type: biochemical, Agaricus bisporus (mushroom)
- Test settings: read-out: IC50 tyrosinase inhibition, diphenolase; L-DOPA substrate
Result type: IC50

Specify the recorded IC50 for O=C(/C=C/c1ccc(O)c(O)c1)N1CCN(Cc2ccccc2)CC1 [Compound 3a] , system: mushroom tyrosinase.
< 100 µM

###

- Subject of test: mushroom tyrosinase
- Experiment description: Mushroom tyrosinase inhibition, monophenolase assay
- Assay type: biochemical, Agaricus bisporus (mushroom)
- Test settings: mushroom tyrosinase, L-tyrosine substrate, pH 6.5
Kindly return t if reported pIC50 ±SEM Monophenolase is no lower than 4; return f if it is lower.

Please check the record COc1ccc(/C=C/C(=O)N2CCN(Cc3ccccc3)CC2)cc1 [Compound 3c] and state if its pIC50 ±SEM Monophenolase is at or above 4.
f

More entries:
Please check the record COc1cc(/C=C/C(=O)N2CCN(Cc3ccccc3)CC2)ccc1O [Compound 3b] and state if its pIC50 ±SEM Monophenolase is at or above 4.
t

Please check the record COc1cc(C(=O)N2CCC(Cc3ccccc3)CC2)ccc1O [Compound 5b] and state if its pIC50 ±SEM Monophenolase is at or above 4.
t

Please check the record O=C(c1ccc(Cl)cc1)N1CCN(Cc2ccccc2)CC1 [Compound 1e, 1-Benzyl-4-(4-chlorobenzoyl)piperazine] and state if its pIC50 ±SEM Monophenolase is at or above 4.
t

Please check the record COc1cc(/C=C/C(=O)N2CCN(c3ccccc3)CC2)ccc1O [Compound 4b] and state if its pIC50 ±SEM Monophenolase is at or above 4.
t

Please check the record COc1ccc(C(=O)N2CCN(c3ccccc3)CC2)cc1 [Compound 2c] and state if its pIC50 ±SEM Monophenolase is at or above 4.
f

Please check the record O=C(c1ccc(O)c(O)c1)N1CCN(Cc2ccccc2)CC1 [Compound 1a] and state if its pIC50 ±SEM Monophenolase is at or above 4.
t

###

- Subject of test: mushroom tyrosinase
- Experiment description: Mushroom tyrosinase inhibition, monophenolase assay
- Type: biochemical, Agaricus bisporus (mushroom)
- Test settings: mushroom tyrosinase, L-tyrosine substrate, pH 6.5
This section presents compounds with their documented pIC50 ±SEM Monophenolase values.
Answer with a bare number; do not write a unit.

Worked examples, 5 compounds total:
Provide pIC50 ±SEM Monophenolase value for the following compound: COc1cc(C(=O)N2CCN(c3ccccc3)CC2)ccc1O [Compound 2b]
3.85

Provide pIC50 ±SEM Monophenolase value for the following compound: O=C(c1ccc(O)cc1)N1CCN(Cc2ccccc2)CC1 [Compound 1d]
4.11

Provide pIC50 ±SEM Monophenolase value for the following compound: COc1cc(/C=C/C(=O)N2CCC(Cc3ccccc3)CC2)ccc1O [Compound 6b]
4.53

Provide pIC50 ±SEM Monophenolase value for the following compound: O=C(c1ccc(O)c(O)c1)N1CCC(Cc2ccccc2)CC1 [Compound 5a]
4.74

Provide pIC50 ±SEM Monophenolase value for the following compound: O=C(/C=C/c1ccc(O)cc1)N1CCN(Cc2ccccc2)CC1 [Compound 3d]
4.54

More entries:
Provide pIC50 ±SEM Monophenolase value for the following compound: O=C(c1ccc(O)c(O)c1)N1CCN(c2ccccc2)CC1 [Compound 2a]
4.42

Provide pIC50 ±SEM Monophenolase value for the following compound: COc1ccc(C(=O)N2CCC(Cc3ccccc3)CC2)cc1 [Compound 5c, 4-Benzyl-1-(4-methoxybenzoyl)piperidine]
4.67

Provide pIC50 ±SEM Monophenolase value for the following compound: O=C(c1ccc(O)cc1)N1CCC(Cc2ccccc2)CC1 [Compound 5d]
4.59

Provide pIC50 ±SEM Monophenolase value for the following compound: COc1cc(C(=O)N2CCN(Cc3ccccc3)CC2)ccc1O [Compound 1b]
4.49

Provide pIC50 ±SEM Monophenolase value for the following compound: O=C(/C=C/c1ccc(O)c(O)c1)N1CCC(Cc2ccccc2)CC1 [Compound 6a]
4.56
